These measurements were taken from patent US10669261B2.

EC50 values for the compounds below.
- targetOrSystem: human APJ receptor (Homo sapiens, UniProt P35414)
- Construct: expressed in transfected cells
- Sequence (P35414 whole entry): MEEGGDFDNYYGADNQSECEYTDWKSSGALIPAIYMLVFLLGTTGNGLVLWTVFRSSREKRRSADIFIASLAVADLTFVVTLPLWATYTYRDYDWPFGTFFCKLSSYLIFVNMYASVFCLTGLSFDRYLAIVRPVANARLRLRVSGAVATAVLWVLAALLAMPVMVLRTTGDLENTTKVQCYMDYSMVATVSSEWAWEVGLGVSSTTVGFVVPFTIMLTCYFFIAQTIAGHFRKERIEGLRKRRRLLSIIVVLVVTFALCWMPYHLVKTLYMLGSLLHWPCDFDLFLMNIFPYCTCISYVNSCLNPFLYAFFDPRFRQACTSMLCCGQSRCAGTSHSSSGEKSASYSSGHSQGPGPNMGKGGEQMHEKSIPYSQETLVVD
- experiment: Intracellular cAMP accumulation assay (APJ hcAMP, HTRF)
- Assay type: cell-based
- conditionInfo: Table 1; HEK293 cells stably expressing human APJ receptor; read-out: hAPJ cAMP EC50 Potency range

// solved cases for EC50 follow
{"compound": "CCCCc1nc(=O)c(-c2nnc(CN3CCCC3=O)o2)c(O)n1-c1c(OC)cccc1OC [Example 8]", "observationType": "EC50", "reading": "0.01 to 10 nM"}
{"compound": "COc1cccc(OC)c1-n1c(CCC2CC2)nc(=O)c(-c2nnc(Cc3ccc(F)cn3)o2)c1O [Example 61]", "observationType": "EC50", "reading": "0.01 to 10 nM"}

Param item = COc1cccc(OC)c1-n1c(COC(C)C)nc(=O)c(-c2nnc(Cc3ccc(Cl)cc3)o2)c1O [Example 36] ; retrieve measured EC50.
0.01 to 10 nM

Param item = [2H]C([2H])([2H])Oc1cccc(OC([2H])([2H])[2H])c1-n1c(COCC)nc(=O)c(-c2nnc(Cc3noc4ccccc34)o2)c1O [Example 50] ; retrieve measured EC50.
0.01 to 10 nM

Param item = CCOCc1nc(=O)c(-c2nnc(Cc3csc(-c4ccccc4)n3)o2)c(O)n1-c1c(OC)cccc1OC [Example 39] ; retrieve measured EC50.
10 to 100 nM

* * *

- targetOrSystem: human APJ receptor (Homo sapiens)
- Construct: expressed in transfected cells
- experiment: Intracellular cAMP accumulation assay (APJ hcAMP, HTRF)
- Type: cell-based
- conditionInfo: HEK293 cells stably expressing human APJ receptor; inhibition of forskolin-mediated cAMP production; stated at end of example; read-out: Human APJ cAMP Potency Range
observationType: EC50

// solved cases for EC50 follow
{"smilesData": "COc1cccc(OC)c1-n1c(CCC2CC2)nc(=O)c(-c2nnc(CN(C)C(=O)c3ccccn3)o2)c1O", "observationType": "EC50", "reading": "0.01 to 10 nM"}
{"smilesData": "CCCCc1nc(O)c(-c2cnn(Cc3ccccc3)c2)c(=O)n1-c1c(OC)cccc1OC", "observationType": "EC50", "reading": "0.01 to 10 nM"}
{"smilesData": "CCCCc1nc(=O)c(-c2nnc(Cc3noc4ccccc34)o2)c(O)n1-c1c(C#N)cccc1C#N", "observationType": "EC50", "reading": "10 to 100 nM"}
{"smilesData": "[2H]C([2H])([2H])Oc1cccc(OC([2H])([2H])[2H])c1-n1c(CCCC)nc(=O)c(-c2nnc(Cc3noc4ccccc34)o2)c1O", "observationType": "EC50", "reading": "0.01 to 10 nM"}

Param item = `CCN(CC)C(=O)Cc1nnc(-c2c(O)n(-c3c(OC)cccc3OC)c(CCC3CC3)nc2=O)o1` ; retrieve measured EC50.
0.01 to 10 nM

Param item = `CCOCc1nc(=O)c(-c2nnc(Cc3noc4ccccc34)o2)c(O)n1-c1c(OC)cccc1OC` ; retrieve measured EC50.
0.01 to 10 nM

Param item = `CCCCc1nc(=O)c(-c2nnc(Cc3noc4ccccc34)o2)c(O)n1-c1c(C2CC2)cccc1C1CC1` ; retrieve measured EC50.
0.01 to 10 nM

Param item = `COc1cccc(OC)c1-n1c(CCC2CC2)nc(=O)c(-c2nnc(Cc3noc4ccccc34)o2)c1O` ; retrieve measured EC50.
0.01 to 10 nM

Param item = `CCCCc1nc(O)c(-c2nnc(Cc3noc4ccccc34)o2)c(=O)n1[C@@H](CC)c1ccccc1` ; retrieve measured EC50.
0.01 to 10 nM

Param item = `CCCCc1nc(=O)c(-c2nnc(Cc3ccc(Cl)cc3)o2)c(O)n1-c1c(OC2CC2)cccc1OC1CC1` ; retrieve measured EC50.
10 to 100 nM

Param item = `CCCCc1nc(=O)c(-c2nnc(Cc3noc4ccccc34)o2)c(O)n1-c1c(OC)cccc1OC` ; retrieve measured EC50.
0.01 to 10 nM

Param item = `CCCCc1nc(=O)c(-c2nnc(Cc3noc4ccccc34)o2)c(O)n1-c1c(OCC)cccc1OCC` ; retrieve measured EC50.
0.01 to 10 nM
